Read-out record for Neuromedin-B receptor (Rattus norvegicus, UniProt P24053): Ki
# number only, unit µM dropped from output

See these solved cases before continuing.
# compound, measurementKind, resultNumber
measured = [
    ("CC(C)C[C@H](NC(=O)[C@H](CC(C)C)NC(=O)[C@@H](Cc1ccccc1)NC(=O)CNC(=O)[C@@H](NC(=O)[C@H](C)NC(=O)[C@H](Cc1c[nH]c2ccccc12)NC(=O)[C@H](CCC(N)=O)NC(=O)[C@@H](Cc1ccccc1)NC(=O)CNC(=O)[C@H](CC(C)C)NC(=O)[C@H](CCCN=C(N)N)NC(=O)[C@H](CCC(N)=O)NC(=O)[C@@H]1CCC(=O)N1)C(C)C)C(N)=O [DPhe6,12,Leu14-Bn]", "Ki", 2.3),
    ("CCCCNC(=O)[C@H](CC(C)C)NC(=O)[C@H](Cc1cnc[nH]1)NC(=O)[C@@H](C)NC(=O)[C@@H](NC(=O)[C@H](C)NC(=O)[C@H](Cc1c[nH]c2ccccc12)NC(=O)[C@H](CCC(N)=O)NC(=O)[C@H](N)Cc1ccc(O)cc1)C(C)C [DTyr6,DAla11-Bn(6-13)butylamide]", "Ki", 2.3),
]

Now consider a different compound.
Enter recorded Ki with Neuromedin-B receptor (Rattus norvegicus, UniProt P24053) for CCCNC(=O)[C@H](CC(C)C)NC(=O)[C@H](Cc1cnc[nH]1)NC(=O)CNC(=O)[C@@H](NC(=O)[C@H](C)NC(=O)[C@H](Cc1c[nH]c2ccccc12)NC(=O)[C@H](CCC(N)=O)NC(=O)[C@H](N)Cc1ccccc1)C(C)C [DPhe6-Bn(6-13)propylamide] here. 4.6
